Biological target: Ca^2+ channel (Rattus norvegicus, UniProt P22002)
Construct: rat cardiac microsomes (source of Ca^2+ channels)
Sequence (P22002 whole entry, other chains not shown): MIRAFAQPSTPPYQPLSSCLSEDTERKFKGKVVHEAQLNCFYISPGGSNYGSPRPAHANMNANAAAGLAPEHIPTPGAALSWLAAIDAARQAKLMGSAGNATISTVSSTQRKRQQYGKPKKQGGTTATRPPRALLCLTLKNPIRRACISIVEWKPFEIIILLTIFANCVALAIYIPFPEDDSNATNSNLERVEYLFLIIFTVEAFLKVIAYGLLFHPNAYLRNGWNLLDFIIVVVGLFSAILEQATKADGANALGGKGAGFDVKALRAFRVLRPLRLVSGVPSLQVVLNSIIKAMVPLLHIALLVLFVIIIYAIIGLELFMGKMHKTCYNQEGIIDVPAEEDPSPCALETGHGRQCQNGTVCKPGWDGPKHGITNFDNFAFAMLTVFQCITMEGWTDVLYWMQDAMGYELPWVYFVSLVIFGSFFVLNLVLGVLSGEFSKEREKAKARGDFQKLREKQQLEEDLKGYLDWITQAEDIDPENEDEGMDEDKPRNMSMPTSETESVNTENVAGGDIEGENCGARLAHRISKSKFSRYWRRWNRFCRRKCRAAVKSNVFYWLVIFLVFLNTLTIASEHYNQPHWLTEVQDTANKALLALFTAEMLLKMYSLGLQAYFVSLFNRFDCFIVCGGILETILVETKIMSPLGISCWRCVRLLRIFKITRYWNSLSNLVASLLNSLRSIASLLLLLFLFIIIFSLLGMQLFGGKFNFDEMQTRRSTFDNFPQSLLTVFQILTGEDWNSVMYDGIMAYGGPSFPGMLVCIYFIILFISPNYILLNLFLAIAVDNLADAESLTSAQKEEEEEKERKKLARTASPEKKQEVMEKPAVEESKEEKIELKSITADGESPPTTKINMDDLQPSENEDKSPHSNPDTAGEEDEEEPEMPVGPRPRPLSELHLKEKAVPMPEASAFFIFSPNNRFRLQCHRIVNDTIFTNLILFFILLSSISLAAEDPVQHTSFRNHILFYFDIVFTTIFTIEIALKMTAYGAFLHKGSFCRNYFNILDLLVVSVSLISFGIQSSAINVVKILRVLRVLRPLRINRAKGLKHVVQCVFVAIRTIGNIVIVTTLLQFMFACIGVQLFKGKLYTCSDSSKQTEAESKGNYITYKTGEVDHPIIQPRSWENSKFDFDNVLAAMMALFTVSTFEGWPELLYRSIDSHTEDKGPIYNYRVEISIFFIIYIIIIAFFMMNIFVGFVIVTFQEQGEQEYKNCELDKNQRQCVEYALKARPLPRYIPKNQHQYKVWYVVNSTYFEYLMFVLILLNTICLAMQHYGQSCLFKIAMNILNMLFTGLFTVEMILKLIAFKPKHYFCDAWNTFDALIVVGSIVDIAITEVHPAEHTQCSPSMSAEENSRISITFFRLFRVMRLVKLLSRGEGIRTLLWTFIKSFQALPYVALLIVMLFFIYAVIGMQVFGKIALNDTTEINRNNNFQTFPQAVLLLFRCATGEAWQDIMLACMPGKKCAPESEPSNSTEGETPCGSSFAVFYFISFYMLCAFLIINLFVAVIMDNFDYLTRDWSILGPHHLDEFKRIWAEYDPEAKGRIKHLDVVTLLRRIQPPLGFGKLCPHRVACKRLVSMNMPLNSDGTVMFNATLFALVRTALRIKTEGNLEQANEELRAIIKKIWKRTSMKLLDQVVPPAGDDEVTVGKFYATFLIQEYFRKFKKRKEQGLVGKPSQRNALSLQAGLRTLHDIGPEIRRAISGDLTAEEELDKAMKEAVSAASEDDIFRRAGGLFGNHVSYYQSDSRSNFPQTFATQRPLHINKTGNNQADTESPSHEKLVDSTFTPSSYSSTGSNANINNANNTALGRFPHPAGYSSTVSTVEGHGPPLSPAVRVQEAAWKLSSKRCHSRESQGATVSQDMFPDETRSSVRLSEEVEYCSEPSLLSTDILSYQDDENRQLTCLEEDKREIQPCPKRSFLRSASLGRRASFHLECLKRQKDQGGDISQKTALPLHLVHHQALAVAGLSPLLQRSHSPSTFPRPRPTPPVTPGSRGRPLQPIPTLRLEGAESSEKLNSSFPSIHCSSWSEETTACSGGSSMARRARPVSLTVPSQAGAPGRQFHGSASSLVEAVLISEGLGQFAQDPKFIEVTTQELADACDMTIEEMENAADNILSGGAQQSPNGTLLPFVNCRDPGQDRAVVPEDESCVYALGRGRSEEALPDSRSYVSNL
Sequence (P54290 25-944 partner limits assumed, other chains not shown): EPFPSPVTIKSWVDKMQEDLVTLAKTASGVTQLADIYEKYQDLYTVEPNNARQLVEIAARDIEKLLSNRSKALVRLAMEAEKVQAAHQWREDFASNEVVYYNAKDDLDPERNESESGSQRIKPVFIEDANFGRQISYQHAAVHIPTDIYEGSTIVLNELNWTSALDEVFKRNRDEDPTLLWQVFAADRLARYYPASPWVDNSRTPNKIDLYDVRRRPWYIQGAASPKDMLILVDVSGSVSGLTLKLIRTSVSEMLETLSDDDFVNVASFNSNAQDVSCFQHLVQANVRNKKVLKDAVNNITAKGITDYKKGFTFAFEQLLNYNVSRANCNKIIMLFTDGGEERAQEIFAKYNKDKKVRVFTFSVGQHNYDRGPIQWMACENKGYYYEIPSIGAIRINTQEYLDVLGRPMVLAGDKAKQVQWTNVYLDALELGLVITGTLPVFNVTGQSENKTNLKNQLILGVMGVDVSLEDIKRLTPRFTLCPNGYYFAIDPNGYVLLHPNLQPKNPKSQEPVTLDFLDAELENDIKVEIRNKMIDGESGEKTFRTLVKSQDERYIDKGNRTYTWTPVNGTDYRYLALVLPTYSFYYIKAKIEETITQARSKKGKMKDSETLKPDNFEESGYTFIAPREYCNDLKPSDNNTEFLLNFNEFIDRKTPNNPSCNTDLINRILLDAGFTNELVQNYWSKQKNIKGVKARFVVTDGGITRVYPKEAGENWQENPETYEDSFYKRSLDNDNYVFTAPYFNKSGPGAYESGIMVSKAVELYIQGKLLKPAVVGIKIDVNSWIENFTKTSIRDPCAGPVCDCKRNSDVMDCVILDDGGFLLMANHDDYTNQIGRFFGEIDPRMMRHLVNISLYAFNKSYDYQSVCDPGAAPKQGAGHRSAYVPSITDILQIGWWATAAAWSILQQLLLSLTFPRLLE
Sequence (P54290 945-1091 partner limits assumed, other chains not shown): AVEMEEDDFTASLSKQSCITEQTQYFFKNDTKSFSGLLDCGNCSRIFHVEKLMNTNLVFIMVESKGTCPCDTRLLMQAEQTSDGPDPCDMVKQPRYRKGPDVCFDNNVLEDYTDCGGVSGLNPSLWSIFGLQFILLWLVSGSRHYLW
Test: [3H]-Nitrendipine binding assay (affinity for calcium channels)
Conditions: rat cardiac microsomes; 0.5 nM [3H]-nitrendipine, 60 min, 25° C.
READOUT_KIND: IC50 (nM)
Only the number, expressed in nM, is required.

compound COc1ccccc1N1CCN(CCOC(=O)C2=C(C)NC(C)=C([N+](=O)[O-])C2c2ccoc2)CC1 (stereo not shown) , IC50 observed: 5100

compound COc1ccccc1N1CCN(CCCCOC(=O)C2=C(C)NC(C)=C([N+](=O)[O-])C2c2cccs2)CC1 (stereo not shown) , IC50 observed: 2200

compound COc1ccccc1N1CCN(CCOC(=O)C2=C(C)NC(C)=C([N+](=O)[O-])C2c2ccsc2)CC1 (stereo not shown) , IC50 observed: 860

compound CC1=C(C(=O)OCCN2CCN(c3ncccn3)CC2)C(c2ccco2)C([N+](=O)[O-])=C(C)N1 (stereo not shown) , IC50 observed: 2000
